Data provenance is ChEMBL document CHEMBL1157507.

Listed below: GI50 values for each entry.
Test system: MDA-MB-231
Experiment: Growth inhibition of human MDA-MB-231 cells after 5 days by MTT assay
Assay type: functional
Conditions: MDA-MB-231, 120 h
Value expressed in µM; do not type the unit.

Study these solved cases before continuing.
>>> print(df.to_string())
                            smiles_notation  reported_result
0  CC(=O)Nc1ccc(C(=O)Nc2ccccc2NC(=O)CNC(=O)OCOC(=O)/C=C(C)/C=C/C=C(C)/C=C/C2=C(C)CCCC2(C)C)cc1             0.63
1  CC1=C(/C=C/C(C)=C/C=C/C(C)=C/C(=O)O)C(C)(C)CCC1             10.8

Ask: Look at this compound and give its reported GI50. "CC1=C(/C=C/C(C)=C/C=C/C(C)=C/C(=O)Oc2ccc(COC(=O)Nc3ccccc3NC(=O)c3ccc(CNC(=O)OCc4cccnc4)cc3)cc2)C(C)(C)CCC1"
Reply: 0.17
